Cited source: patent US20170049786A1

Experiment: in vivo
Settings: rabbit, Rapamycin level, Blood
readout kind: concentration at 14 day (ng/mL)
Kindly provide the numeric value in ng/mL only, without the unit symbol.

Query :: What concentration at 14 day value was documented for this compound, `CO[C@H]1C[C@@H]2CC[C@@H](C)[C@@](O)(O2)C(=O)C(=O)N2CCCC[C@H]2C(=O)O[C@H]([C@H](C)C[C@@H]2CC[C@@H](O)[C@H](OC)C2)CC(=O)[C@H](C)/C=C(\C)[C@@H](O)[C@@H](OC)C(=O)[C@H](C)C[C@H](C)/C=C/C=C/C=C/1C` ?
Result :: 48.3

====

Assay: in vivo
Conditions: rabbit, Rapamycin level, Cornea
readout kind: concentration at 8 day (ng/g)
Kindly provide the numeric value in ng/g only, without the unit symbol.

Query :: What concentration at 8 day value was documented for this molecule, `CO[C@H]1C[C@@H]2CC[C@@H](C)[C@@](O)(O2)C(=O)C(=O)N2CCCC[C@H]2C(=O)O[C@H]([C@H](C)C[C@@H]2CC[C@@H](O)[C@H](OC)C2)CC(=O)[C@H](C)/C=C(\C)[C@@H](O)[C@@H](OC)C(=O)[C@H](C)C[C@H](C)/C=C/C=C/C=C/1C` ?
Result :: 169
